- systemUnderTest: Adenosine receptor A2a (Homo sapiens, UniProt P29274)
- Sequence (P29274 whole entry): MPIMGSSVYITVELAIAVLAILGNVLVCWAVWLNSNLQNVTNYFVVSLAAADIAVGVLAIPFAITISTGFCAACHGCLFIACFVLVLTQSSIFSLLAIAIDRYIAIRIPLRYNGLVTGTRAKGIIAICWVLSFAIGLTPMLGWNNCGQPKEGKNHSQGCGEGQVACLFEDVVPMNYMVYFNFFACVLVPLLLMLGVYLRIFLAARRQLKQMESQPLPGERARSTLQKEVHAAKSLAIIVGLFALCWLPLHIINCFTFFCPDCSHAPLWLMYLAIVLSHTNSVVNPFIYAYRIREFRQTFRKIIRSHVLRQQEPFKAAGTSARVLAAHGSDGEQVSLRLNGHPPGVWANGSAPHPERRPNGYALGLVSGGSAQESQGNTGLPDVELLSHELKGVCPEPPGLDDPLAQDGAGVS
observedProperty: pKi
Lab note: report pKi as minus log10 of the concentration in molar units, number only.

Query: Would you kindly share the measured pKi for "CCCSc1nc(NC(C)=O)cc(OCc2ccccc2Cl)n1" ?
Reply: 5.38

====

- systemUnderTest: Adenosine receptor A1 (Homo sapiens)
- Sequence (P30542 whole entry): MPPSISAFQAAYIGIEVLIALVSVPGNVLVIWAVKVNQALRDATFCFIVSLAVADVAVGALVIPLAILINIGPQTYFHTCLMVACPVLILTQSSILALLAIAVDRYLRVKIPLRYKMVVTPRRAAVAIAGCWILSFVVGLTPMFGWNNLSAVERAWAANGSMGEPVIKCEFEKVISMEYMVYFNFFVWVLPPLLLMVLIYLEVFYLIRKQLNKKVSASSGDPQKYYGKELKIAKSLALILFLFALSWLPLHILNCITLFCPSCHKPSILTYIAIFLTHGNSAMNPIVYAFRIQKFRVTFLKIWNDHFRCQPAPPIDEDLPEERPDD
observedProperty: Ki (nM)
Express the result in nM but write the number alone.

Query: Would you kindly share the measured Ki for "CCCSc1nc(NC(C)=O)cc(OCc2cccc(Cl)c2)n1" ?
Reply: 582

Query: Would you kindly share the measured Ki for "CCCSc1nc(NC(C)=O)cc(OCc2ccccc2)n1" ?
Reply: 2440

Query: Would you kindly share the measured Ki for "CCCSc1nc(NC(C)=O)cc(OCc2ccccc2Cl)n1" ?
Reply: 1840

Query: Would you kindly share the measured Ki for "CCCSc1nc(NC(C)=O)cc(OCCc2ccccc2)n1" ?
Reply: 2080
